PROTOCOL DETAILS: Water solubility, stepwise addition of water, classed by USP23
Type: physicochemical
MEASUREMENT SETUP: water, thermodynamic from solid; D.W.; no visible precipitate after vortexing and centrifugation
Procedure: 3 mg of lenalidomide (Combi-Block, Inc. San Diego, CA, USA) and ribose-lenalidomide were each weighed and placed in a 1.5 mL Eppendorf tube, 0.03 mL of water was added thereto, and then the mixture was vortexed for one minute and then centrifuged at 15,000 rpm for 1 minute, and an undissolved compound was precipitated. […] The solubility was determined by Table 1 as defined in United States Pharmacopeia 23 (USP23).
QUANTITY MEASURED: solubility at 1 min

query: Supply solubility at 1 min value. Item: O=C1CCC(N2Cc3c(/N=C/[C@H](O)[C@H](O)[C@H](O)CO)cccc3C2=O)C(=O)N1 (stereo partly shown) [ribose-lenalidomide (type 1)]
result: ≥ 100 mg/mL
